# Study System: RXRβ (Mus musculus, UniProt P28704)
# Sequence (P28704 whole entry): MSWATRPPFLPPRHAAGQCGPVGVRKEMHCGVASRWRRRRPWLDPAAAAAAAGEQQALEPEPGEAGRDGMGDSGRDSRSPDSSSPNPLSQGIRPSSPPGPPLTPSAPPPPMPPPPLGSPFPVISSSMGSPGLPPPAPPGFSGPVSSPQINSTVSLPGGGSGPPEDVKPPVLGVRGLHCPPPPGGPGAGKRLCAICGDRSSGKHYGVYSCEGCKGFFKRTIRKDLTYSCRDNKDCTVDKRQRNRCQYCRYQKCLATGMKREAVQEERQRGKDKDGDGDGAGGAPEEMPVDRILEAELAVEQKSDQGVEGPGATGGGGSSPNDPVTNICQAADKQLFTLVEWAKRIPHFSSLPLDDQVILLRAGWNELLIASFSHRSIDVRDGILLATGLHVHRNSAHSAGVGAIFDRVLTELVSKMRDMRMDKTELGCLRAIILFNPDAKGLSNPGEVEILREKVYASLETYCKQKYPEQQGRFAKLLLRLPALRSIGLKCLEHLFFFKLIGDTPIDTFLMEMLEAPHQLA
# Test: holoreceptor transactivation assay, RXRβ
# Test Settings: holoreceptor transactivation, RXRβ; read-out: RXR Trans. EC50 β
Observed Property: pEC50
Quick note: pEC50 means taking -log10 of the concentration in moles per liter.

// lookup pEC50 for CC(C)N(c1ccc(C(=O)O)cc1)c1cc(C(C)(C)C)c2c(c1)C(C)(C)CO2 6.77

Quick one: pEC50 for CCCCN(c1ccc(C(=O)O)cc1)c1ccc2c(c1)C(C)(C)OC2(C)C ? 6.00

For CCN(c1ccc(C(=O)O)cc1)c1cc2c(c(C(C)C)c1C)OCC2(C)C , what is its reported pEC50? 7.14

pEC50 for CCN(c1ccc(C(=O)O)cc1)c1cc(C(C)(C)C)c2c(c1)C(C)(C)CO2 ? 6.00

What value of measured pEC50 is listed for CCN(c1ccc(C(=O)O)cc1)c1ccc2c(c1)C(C)(C)OC2(C)C ? 6.00

For the compound CCCN(c1ccc(C(=O)O)cc1)c1ccc2c(c1)C(C)(C)OC2(C)C , what pEC50 is on record? 6.00

Consider the compound CC(C)N(c1ccc(C(=O)O)cc1)c1ccc2c(c1)C(C)(C)OC2(C)C and give its measured pEC50. 6.00

Can you look up the measured pEC50 of Cc1c(N(c2ccc(C(=O)O)cc2)C(C)C)cc2c(c1C(C)(C)C)OCC2(C)C for me? 7.15

====

Task for the reader: assign each of the following compounds its reported EC50.
# Study System: RXRγ (Mus musculus)
# Sequence (P28705 1-463): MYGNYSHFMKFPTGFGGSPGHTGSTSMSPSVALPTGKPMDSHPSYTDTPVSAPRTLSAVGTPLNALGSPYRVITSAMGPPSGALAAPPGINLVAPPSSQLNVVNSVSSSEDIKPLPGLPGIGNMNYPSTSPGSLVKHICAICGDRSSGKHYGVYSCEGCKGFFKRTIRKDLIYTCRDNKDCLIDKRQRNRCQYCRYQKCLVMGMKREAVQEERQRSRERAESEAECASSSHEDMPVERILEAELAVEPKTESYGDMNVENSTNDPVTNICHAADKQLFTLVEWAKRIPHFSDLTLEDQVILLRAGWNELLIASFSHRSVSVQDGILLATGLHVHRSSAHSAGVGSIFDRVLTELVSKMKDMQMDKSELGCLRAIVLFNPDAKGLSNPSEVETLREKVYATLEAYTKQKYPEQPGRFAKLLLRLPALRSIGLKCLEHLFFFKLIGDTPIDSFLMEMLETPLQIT
# Test: holoreceptor transactivation assay, RXRγ
# Test Settings: holoreceptor transactivation, RXRγ; read-out: RXR Trans. EC50 γ
Field format: number, assumed nM, no unit text.

Reported EC50 for RXRγ (Mus musculus), given CCN(c1ccc(C(=O)O)cc1)c1cc2c(c(C(C)C)c1C)OCC2(C)C [Compound 70] ? 18

Lookup: EC50 / RXRγ (Mus musculus) / CCN(c1ccc(C(=O)O)cc1)c1cc(C(C)C)c2c(c1)C(C)(C)CO2 [Compound 31] 85

Lab note: need EC50 for CCN(c1ccc(C(=O)O)cc1)c1ccc2c(c1)C(C)(C)OC2(C)C [Compound 83] on RXRγ (Mus musculus), anyone have it? 63

Find the measured EC50: item CCN(c1ccc(C(=O)O)cc1)c1cc(C(C)(C)C)c2c(c1)C(C)(C)CO2 [Compound 32] , target or system RXRγ (Mus musculus). 230

# value lookup — system RXRγ (Mus musculus), readout EC50, item CCCCN(c1ccc(C(=O)O)cc1)c1ccc2c(c1)C(C)(C)OC2(C)C [Compound 85] 700
